Overview of reported solubility kinetic across a group of compounds:
conditions: buffer; pH 7.4; 200.0 µM
assay.readout: solubility kinetic (µg/mL)

compound="CC(C)(C)C1CCC(C(=O)Nc2cccnc2)CC1 (stereo not given)" limit_operator== observed_result=6.3
compound=Cc1ccc(CNC(=O)c2cc(=O)c3ccccc3o2)cc1 limit_operator== observed_result=3
compound=Cn1ccnc1CC(O)(c1ccccc1)c1ccccc1 limit_operator== observed_result=20.4
compound="CCOC(=O)C1=C(C)NC(=O)NC1c1cccs1 (stereo not given)" limit_operator=> observed_result=39.9
compound="CC(C(=O)N1CCN(c2ccccc2)CC1)c1ccc([N+](=O)[O-])cc1 (stereo not given)" limit_operator== observed_result=40.7
compound=Br.CC(C)(C)c1ccc(C2=CSC3=NCCN23)cc1 limit_operator== observed_result=49.4
compound=Cc1cccc(C)c1NC(=S)N1CCCCCC1 limit_operator=> observed_result=39.4
compound=O=C(NCC1CC1)Nc1ccccc1 limit_operator=> observed_result=28.5
compound=Cc1csc(NC(=O)CSc2nncs2)n1 limit_operator=> observed_result=40.9
compound=COc1ccc(CNC(=O)COC(=O)c2ccc(S(=O)(=O)N3CCOCC3)cc2)cc1 limit_operator== observed_result=9.2
compound=COc1ccc(S(=O)(=O)Nc2cc3[nH]c(=O)oc3cc2C)cc1 limit_operator=> observed_result=50.2
compound=O=C(Nc1ccc(S(=O)(=O)N2CCOCC2)cc1)c1ccccc1 limit_operator=> observed_result=52
compound="O=C(OCCC1Oc2cccnc2NC1=O)c1ccc(F)cc1 (stereo not given)" limit_operator== observed_result=4.8
compound=COc1cc(C(=O)COC(=O)c2ccncc2)cc(OC)c1OC limit_operator=> observed_result=49.7
compound=Cc1ccc(C)c(NC(=O)c2cc([N+](=O)[O-])cc([N+](=O)[O-])c2)c1 limit_operator== observed_result=0.6
compound=CCCCOc1ccc(C(=O)NCC(=O)NNC(=O)c2ccco2)cc1 limit_operator=> observed_result=53.9
compound=C/C(=C\c1ccc(F)cc1)C(=O)c1c(C)cc(C)[nH]c1=O limit_operator== observed_result=35.6
compound=Cl.O=C(O)C1=CCCNC1 limit_operator=> observed_result=24.5
compound=CCCCc1nc2cc(C(=O)N3CCC(O)CC3)ccc2o1 limit_operator=> observed_result=45.4
compound=O=C1NC(=O)N(CCC2=CCCCC2)C(=O)/C1=C/c1cccs1 limit_operator== observed_result=26.1
compound="COc1ccc(C(=O)C2CCCN(S(=O)(=O)C(C)C)C2)c(C)c1 (stereo not given)" limit_operator== observed_result=45.4
compound=NS(=O)(=O)c1ccc(CNC(=O)/C=C/c2cccc([N+](=O)[O-])c2)cc1 limit_operator== observed_result=14.2
compound=O=C(NN1CCOCC1)c1ccccc1F limit_operator=> observed_result=33.6
compound=COc1ccc(Cl)cc1/C=C1/C(=O)ON=C1C limit_operator== observed_result=29
compound=COC(=O)c1c(C)[nH]c(C(=O)NCc2ccco2)c1C limit_operator== observed_result=35.3
